Values were extracted from patent US20060069132A1.

test system: barnyardgrass; assay: Test B flooded paddy test; assay type: in vivo, Echinochloa crus-galli; conditions: 1000 g ai/ha, visual rating, scale 0 to 100 (0 no effect, 100 complete control), 13 to 15 days
Class YES: Barnyardgrass plant response rating at least 80. Class NO: Barnyardgrass plant response rating below 80.

Study these solved cases before continuing.
• CCCCOC(=O)c1cccc(NC(=O)c2cc(C(C)(C)C)nn2CC)c1 = NO
• CCc1nc(C(C)(C)C)sc1C(=O)Nc1cccc(C(=O)N(C)C)c1 = YES

Q. Please check the record CCn1nc(C(C)(C)C)cc1C(=O)Nc1cccc(SC(F)(F)F)c1 and state if its Barnyardgrass plant response rating is at or above 80.
A. NO

Q. Further, for CCn1nc(C(C)(C)C)cc1C(=O)Nc1cc(C(=O)OC)cc(C)n1 ?
A. NO

Q. Further, for CC(C)NS(=O)(=O)c1cccc(NC(=O)c2cc(C(C)(C)C)nn2C)c1 ?
A. NO

Q. Further, for CC(=NO)c1cccc(NC(=O)c2sc(C(C)(C)C)nc2C)c1 ?
A. NO

====

A collection of compounds and their measured Plant response rating, Lambsquarters
test system: lambsquarters; assay: Test C pre-/postemergence herbicide test; assay type: in vivo, Chenopodium album; settings: postemergence; 62 g ai/ha; scale 0 to 100
From the text: […]
Give the figure by itself; no unit, no explanation.

Worked cases, Plant response rating, Lambsquarters given:
* CCCCOC(=O)c1cccc(NC(=O)c2cc(C(C)(C)C)nn2CC)c1 | 100
* C=Cn1nc(C(C)(C)C)cc1C(=O)Nc1cccc(C(C)=NO)c1 | 90
* CC(=NO)c1cccc(NC(=O)c2cc(C(C)(C)C)nn2CCF)c1 | 100
* CCNC(=O)c1cc(NC(=O)c2cc(C(C)(C)C)nn2CC)ccc1F | 60

Turning now to a further record.
Q. What value of measured Plant response rating, Lambsquarters is listed for CCOC(=O)c1cc(NC(=O)c2cc(C(C)(C)C)nn2CC)ccc1OC ?
A. 60

====

tested on: large crabgrass; experiment: Test A pre-/postemergence herbicide test; format: in vivo, Digitaria sanguinalis; details: Postemergence, 2000 g ai/ha; 0 to 100 scale, 0 no effect, 100 complete control
A collection of compounds and their measured Plant response rating, Crabgrass, Large

- CCNC(=O)c1cccc(NC(=O)c2sc(C(C)(C)C)nc2C)c1 [Compound 198]: 65
- CCOC(=O)c1cccc(NC(=O)c2cc(C(C)(C)C)nn2CC)c1C [Compound 88]: 95
- CCNC(=O)c1cc(NC(=O)c2cc(C(C)(C)C)nn2CC)ccc1F [Compound 58]: 75
- CCCCOC(=O)c1cccc(NC(=O)c2cc(C(C)(C)C)nn2CC)c1 [Compound 86]: 25
- C=CCNC(=O)c1cccc(NC(=O)c2cc(C(C)(C)C)nn2CC)c1 [Compound 46]: 90
- CC(C)NS(=O)(=O)c1cccc(NC(=O)c2cc(C(C)(C)C)nn2C)c1 [Compound 124]: 10
- CCc1nc(C(C)(C)C)sc1C(=O)Nc1cccc(C(=O)NCC(F)(F)F)c1 [Compound 206]: 5
- CCc1nn(C2CCCC2)nc1C(=O)Nc1cccc(C(=O)N2CC=CC2)c1 [Compound 354]: 20

Q. # query: Plant response rating, Crabgrass, Large | item CCn1nc(C(C)(C)C)cc1C(=O)Nc1cc(C(=O)OC)cc(C)n1 [Compound 148] | system: large crabgrass
A. 10

Q. Further, for CCCOC(=O)c1cccc(NC(=O)c2cc(C(C)(C)C)nn2CC)c1C [Compound 90] ?
A. 25

Q. Further, for C=CCNC(=O)c1cccc(NC(=O)c2sc(C(C)(C)C)nc2CC)c1 [Compound 207] ?
A. 65

====

test system: rice; test: Test C flooded paddy test; assay type: in vivo, Oryza sativa; details: 62 g ai/ha, scale 0 to 100
Observable: Rice plant response rating
Give the figure by itself; no unit, no explanation.

Worked cases, Rice plant response rating given:
* CCNC(=O)c1ccc(OC)c(NC(=O)c2cc(C(C)(C)C)nn2CC)n1 | 0
* CCc1nn(C(C)(C)C)cc1C(=O)Nc1cc(C(=O)N(C)C)ccn1 | 0
* CCn1nc(C(C)(C)C)cc1C(=O)Nc1cc(C(=S)N(C)C)ccc1F | 70

Q. What value of measured Rice plant response rating is listed for CCc1nn(C(C)(C)C)nc1C(=S)Nc1cccc(C(=S)N(C)C)c1 ?
A. 60

Q. Further, for CCNC(=O)c1ccc(F)c(NC(=O)c2c3c(nn2CC)C(C)(C)CC3)c1 ?
A. 0

Q. Further, for CCN(C)C(=O)c1cncc(NC(=O)c2cc(C(C)(C)C)nn2CC)c1 ?
A. 0

====

test system: large crabgrass; assay: Test C pre-/postemergence herbicide test; assay type: in vivo, Digitaria sanguinalis; details: postemergence; 62 g ai/ha; scale 0 to 100
Text: […]
Observable: Plant response rating, Crabgrass, Large
Give the figure by itself; no unit, no explanation.

Worked cases, Plant response rating, Crabgrass, Large given:
• CCOC(=O)c1cccc(NC(=O)c2nn(C(C)(C)CC)nc2CC)c1 [Compound 375] = 5
• CCCCOC(=O)c1cccc(NC(=O)c2cc(C(C)(C)C)nn2CC)c1 [Compound 86] = 10
• CC(=NO)c1cccc(NC(=O)c2cc(C(C)(C)C)nn2CCF)c1 [Compound 115] = 60

Turning now to a further record.
Q. What value of measured Plant response rating, Crabgrass, Large is listed for C#CCn1nc(C(C)(C)C)cc1C(=O)Nc1cccc(C(=O)NCC)c1 [Compound 50] ?
A. 0

====

tested on: pigweed; assay: Test C pre-/postemergence herbicide test; format: in vivo, Amaranthus retroflexus; conditions: 62 g ai/ha; preemergence
Excerpt: […]
A collection of compounds and their measured Plant response rating (0 = no effect, 100 = complete control), Pigweed
Give the figure by itself; no unit, no explanation.

Q. # query: Plant response rating (0 = no effect, 100 = complete control), Pigweed | item C=Cn1nc(C(C)(C)C)cc1C(=O)Nc1cccc(C(=O)NCC)c1 | system: pigweed
A. 50

Q. Further, for CC(=NO)c1cccc(NC(=O)c2cc(C(C)(C)C)nn2CCF)c1 ?
A. 100

Q. Further, for CCCN1CCc2c(NC(=O)c3cc(C(C)(C)C)nn3CC)cccc2C1=O ?
A. 70

Q. Further, for CCn1nc(C(C)(C)C)cc1C(=O)Nc1cccc2c1CN(C)C2=O ?
A. 95

====

Test system: Surinam grass
Assay: Test B pre-/postemergence herbicide test
Type: in vivo, Urochloa decumbens
Details: 125 g ai/ha; visual rating, scale 0 (no effect) to 100 (complete control); postemergence
Description: […] At the same time, plants selected from these crop and weed species and also blackgrass (Alopecurus myosuroides Huds.), wheat (Triticum aestivum L.) and wild oat (Avena fatua L.) were treated with postemergence applications of test chemicals formulated in the same manner. […] Treated plants and controls were maintained in a greenhouse for 13 to 15 days, after which time all species were compared to controls and visually evaluated. […]
Observable: Surinam Grass plant response rating
Give the figure by itself; no unit, no explanation.

Worked cases, Surinam Grass plant response rating given:
* Cc1nn(C(C)C)nc1C(=O)Nc1cccc(C(=O)N(C)C)c1 | 0
* CCOC(=O)c1cccc(NC(=O)c2cc(C(C)(C)C)nn2C)n1 | 10
* CCc1nn(C(C)(C)C)nc1C(=O)Nc1cccc(C(=O)N2CC=CC2)c1 | 10
* Cc1nn(C(C)(C)C)nc1C(=O)Nc1cccc(C(=O)N2CC=CC2)c1 | 10

Turning now to a further record.
Q. What value of measured Surinam Grass plant response rating is listed for CCn1nc(C(C)(C)C)cc1C(=O)Nc1cc(OC)ccc1OC ?
A. 20

====

test system: giant foxtail; test: Test B pre-/postemergence herbicide test; assay type: in vivo, Setaria faberi; conditions: postemergence, 500 g ai/ha; scale 0 to 100, 0 is no effect, 100 is complete control
A collection of compounds and their measured Foxtail, Giant plant response rating

Worked cases, Foxtail, Giant plant response rating given:
* CCn1nc(C(C)(C)C)cc1C(=O)Nc1cccc(OC(F)F)c1 | 50
* CCOC(=O)c1cc(NC(=O)c2cc(C(C)(C)C)nn2CC)c(F)cc1F | 30
* CCN(CC)C(=O)c1cc(NC(=O)c2cc(C(C)(C)C)nn2CC)c(F)cc1F | 0
* CCn1nc(C(C)(C)C)cc1C(=O)Nc1cncc(C(=O)N(C)C)c1 | 0

Q. What value of measured Foxtail, Giant plant response rating is listed for CCNC(=O)c1ccc(F)c(NC(=O)c2nn(C(C)(C)C)nc2C)c1 ?
A. 10

====

A collection of molecules and their measured Crabgrass, Large plant response rating
tested on: large crabgrass; assay: Test B pre-/postemergence herbicide test; type: in vivo, Digitaria sanguinalis; settings: postemergence, 125 g ai/ha; visual rating, scale 0 (no effect) to 100 (complete control)
Give the figure by itself; no unit, no explanation.

Q. What value of measured Crabgrass, Large plant response rating is listed for CCc1nc(C(C)(C)C)sc1C(=O)Nc1cccc(C(=O)N(C)C)c1 [Compound 228] ?
A. 20

Q. Further, for CC(=NO)c1cccc(NC(=O)c2cc(C(C)(C)C)nn2C(C)C)c1 [Compound 110] ?
A. 10

Q. Further, for CCOC(=O)c1cc(NC(=O)c2cc(C(C)(C)C)nn2CC)c(F)cc1F [Compound 250] ?
A. 20

Q. Further, for C=CCNC(=O)c1cccc(NC(=O)c2sc(C(C)(C)C)nc2CC)c1 [Compound 207] ?
A. 20

Q. Further, for CCNC(=O)c1cccc(NC(=O)c2sc(C(C)(C)C)nc2C)c1 [Compound 198] ?
A. 10

Q. Further, for CCN(C)C(=O)c1cncc(NC(=O)c2cc(C(C)(C)C)nn2CC)c1 [Compound 263] ?
A. 10

Q. Further, for CCn1nc(C(C)(C)C)cc1C(=O)Nc1cc(C(=O)NCCOC)ccn1 [Compound 161] ?
A. 0

Q. Further, for CCNC(=O)c1ccc(OC)c(NC(=O)c2cc(C(C)(C)C)nn2CC)n1 [Compound 266] ?
A. 0

Q. Further, for CC(=NO)c1cc(NC(=O)c2cc(C(C)(C)C)nn2C)ccc1F [Compound 109] ?
A. 10
